test system: PC-3 prostate; assay: NCI tumour cell line growth inhibition, 48 h; in the data active means GI50 below about 0.43 µM; inactive means the rest
Write down one outcome, taken from active, inactive

CC1(C)CC[C@]2(C(=O)N3CCOCC3)CC[C@]3(C)C(=CC[C@@H]4[C@@]5(C)C/C(=C/c6ccncc6)C(=O)C(C)(C)[C@@H]5CC[C@]43C)[C@@H]2C1
active

Can you look up the reported call for `Cc1[nH]c2ccccc2c1CCNCc1ccc(/C=C/C(=O)NO)cc1` for me?
active

Query `CCN(CC)c1ccc(C(=N)c2ccc(N(C)C)cc2)cc1` next
active

Query CN(C)CC1CCCCCC(CN(C)C)C1=O (stereo not given) next
inactive

Query COc1cc2c3c(n(C)c(=O)c2cc1OC)-c1cc2c(cc1/C3=C\C(N)CN)OCO2 (stereo not given) next
inactive
